- PROTOCOL_SUMMARY: Stability tests of analytes in rat plasma QC samples
- Format: in vitro ADME
- STUDY_CONDITIONS: rat plasma, nominal conc. 400 nM
- Protocol: […] The dilution integrity was investigated by analyzing six replicate samples with each analyte, and each analyte were diluted 10-fold with blank rat matrix. Furthermore, the diluted samples were analyzed using freshly prepared calibration curve to calculate RE and RSD, which should be no more than ± 15% as criterion.
ENDPOINT_NAME: Extracted samples at 8 °C for 18 h, RE (%)
# number only, unit % dropped from output

// worked examples, Extracted samples at 8 °C for 18 h, RE included
CC(C)(O)[C@@H]1CC[C@](C)([C@H]2[C@@H](O)C[C@@]3(C)[C@@H]4C[C@H](O[C@@H]5O[C@H](CO)[C@@H](O)[C@H](O)[C@H]5O)[C@H]5C(C)(C)[C@@H](O[C@@H]6OC[C@@H](O)[C@H](O)[C@H]6O)CC[C@@]56C[C@@]46CC[C@]23C)O1 [Compound B2, Astragaloside IV]: -10.44
CC(C)=CCC[C@](C)(O[C@@H]1O[C@H](CO[C@@H]2O[C@H](CO)[C@@H](O)[C@H](O)[C@H]2O)[C@@H](O)[C@H](O)[C@H]1O)[C@H]1CC[C@]2(C)[C@@H]1[C@H](O)C[C@@H]1[C@@]3(C)CC[C@H](O[C@@H]4O[C@H](CO)[C@@H](O)[C@H](O)[C@H]4O[C@@H]4O[C@H](CO)[C@@H](O)[C@H](O)[C@H]4O)C(C)(C)[C@@H]3CC[C@]12C [Compound D5, Ginsenoside Rb1]: 9.12

Switching to the query record.
Can you look up the measured Extracted samples at 8 °C for 18 h, RE of O=C1CCC[C@@H]2[C@H]3CCCN4CCC[C@@H](CN12)[C@@H]34 for me?
7.87

====

- PROTOCOL_SUMMARY: Stability tests of analytes in rat plasma QC samples
- Format: in vitro ADME
- STUDY_CONDITIONS: rat plasma, nominal conc. 20 nM
ENDPOINT_NAME: Extracted samples at 8 °C for 18 h, Mean±SD (nM)
Please state the figure in nM; there is no need to write the unit.

O=C1CCC[C@@H]2[C@H]3CCCN4CCC[C@@H](CN12)[C@@H]34: 21.75

Dear colleague, I am looking for the recorded Extracted samples at 8 °C for 18 h, Mean±SD of the following molecule: CC(C)=CCC[C@](C)(O[C@@H]1O[C@H](CO)[C@@H](O)[C@H](O)[C@H]1O)[C@H]1CC[C@]2(C)[C@@H]1[C@H](O)C[C@@H]1[C@@]3(C)CC[C@H](O[C@@H]4O[C@H](CO)[C@@H](O)[C@H](O)[C@H]4O[C@@H]4O[C@H](CO)[C@@H](O)[C@H](O)[C@H]4O)C(C)(C)[C@@H]3CC[C@]12C [Compound D2, Ginsenoside Rd]
21.52

Consider the molecule CC(C)=CCC[C@](C)(O)[C@H]1CC[C@]2(C)[C@@H]1[C@H](O)C[C@@H]1[C@@]3(C)CC[C@H](O)C(C)(C)[C@@H]3[C@@H](O[C@@H]3O[C@H](CO)[C@@H](O)[C@H](O)[C@H]3O[C@@H]3O[C@@H](C)[C@H](O)[C@@H](O)[C@H]3O)C[C@]12C [Compound C5, Ginsenoside Rg2] and give its measured Extracted samples at 8 °C for 18 h, Mean±SD.
21.07

Consider the molecule CC(C)=CCC[C@](C)(O[C@@H]1O[C@H](CO[C@@H]2O[C@@H](CO)[C@H](O)[C@H]2O)[C@@H](O)[C@H](O)[C@H]1O)[C@H]1CC[C@]2(C)[C@@H]1[C@H](O)C[C@@H]1[C@@]3(C)CC[C@H](O[C@@H]4O[C@H](CO)[C@@H](O)[C@H](O)[C@H]4O[C@@H]4O[C@H](CO)[C@@H](O)[C@H](O)[C@H]4O)C(C)(C)[C@@H]3CC[C@]12C [Compound D3, Ginsenoside Rc] and give its measured Extracted samples at 8 °C for 18 h, Mean±SD.
21.26

Entry CC(C)=CCC[C@](C)(O)[C@H]1CC[C@]2(C)[C@@H]1[C@H](O)C[C@@H]1[C@@]3(C)CC[C@H](O)C(C)(C)[C@@H]3[C@@H](O[C@@H]3O[C@H](CO)[C@@H](O)[C@H](O)[C@H]3O)C[C@]12C [Compound C1, Ginsenoside Rh1] has what Extracted samples at 8 °C for 18 h, Mean±SD?
20.79

State the recorded Extracted samples at 8 °C for 18 h, Mean±SD for this entry: CC(C)(O)[C@@H]1CC[C@](C)([C@H]2[C@@H](O)C[C@@]3(C)[C@@H]4C[C@H](O)[C@H]5C(C)(C)[C@@H](O[C@@H]6OC[C@@H](O)[C@H](O)[C@H]6O[C@@H]6O[C@H](CO)[C@@H](O)[C@H](O)[C@H]6O)CC[C@@]56C[C@@]46CC[C@]23C)O1 [Compound B3, Astragaloside III]
17.98

Extracted samples at 8 °C for 18 h, Mean±SD for O=C1C=CC[C@@H]2[C@H]3CCC[N+]4([O-])CCC[C@@H](CN12)[C@@H]34 (some centres unmarked) ?
22.58
